System: HCT-15 colon
TEST: NCI tumour cell line growth inhibition, 48 h; in the data active = GI50 below about 0.43 µM; inactive = the rest
In this exercise, the only acceptable responses are t = active, f = inactive

Sample answers from the record:
* CN1c2cccc[c]2[Sn]([CH3])([CH3])[c]2ccccc21 | t
* O=C(O)[C@@H](Cc1ccccc1)NS(=O)(=O)c1ccc(-c2ccccc2)cc1 | f
* Cc1cc(S(=O)(=O)Nc2nc3ccccc3s2)c(SCc2ccccc2)cc1Cl | f
* Clc1ccc(Nc2nnc(COc3ccccc3)c3ccccc23)cc1 | f
* c1ccc2cc(Cn3c(-c4cccc5ccccc45)[n+](Cc4ccc5ccccc5c4)c4c5ccccc5c5ccccc5c43)ccc2c1 | t

Ask: Hi team, can someone confirm the assay call for "CC(C)Cc1cc(-c2cccn2C)c(C#N)c(=O)[nH]1" ?
Reply: f

Ask: Hi team, can someone confirm the assay call for OCC1OC(n2cnc3cc(Cl)c(Cl)cc32)C(O)C1O (stereo not drawn) ?
Reply: f

Ask: Hi team, can someone confirm the assay call for "Nc1cc2c3ccccc3ccc2c2ccccc12" ?
Reply: f
